TEST_DESCRIPTION: Metabolic stability in mouse intestinal homogenate (GIh)
CONDITION_CONTEXT: CES1–/–, mouse, intestinal homogenate
REPORTED_METRIC: remaining at 1 h, 10 µM (%)

# COMPOUND, REPORTED_METRIC, RESULT_VALUE
measured = [
    ("CN(C)CC(=O)N[C@@H](Cc1ccc(F)cc1)C(=O)N[C@@H](CCC(=O)C=[N+]=[N-])C(=O)OC(C)(C)C [Prodrug P15]", "remaining at 1 h, 10 µM", 67),
]

I = CCOC(=O)[C@H](CCC(=O)C=[N+]=[N-])NC(=O)[C@H](Cc1c[nH]c2ccccc12)NC(C)=O [Prodrug P2]
II = CN(C)CC(=O)N[C@@H](Cc1c[nH]c2ccccc12)C(=O)N[C@@H](CCC(=O)C=[N+]=[N-])C(=O)OC(C)(C)C [Prodrug P9]
III = CC(=O)N[C@@H](Cc1c[nH]c2ccccc12)C(=O)N[C@@H](CCC(=O)C=[N+]=[N-])C(=O)OC1CC1 [Prodrug P3]
INPUT: Ranking field: remaining at 1 h, 10 µM; order: falling. Provide the labels, sequenced as the question asks.
OUTPUT: II, III, I
(II: 66%, III: 6%, I: 2%)
